- Test system: OVCAR-8 ovarian
- EXPERIMENTAL PROTOCOL: NCI tumour cell line growth inhibition, 48 h
ASSAY METRIC: log10 of TGI (log10 of the value in µM)
Answers are given as log10 of TGI in µM.

Worked examples follow.
1. O[C@@H]1CCCCN1Cc1cc2cc3c(cc2c2cc(OCc4ccccc4)ccc12)OCO3 | 0.48
2. Nc1ncnc2c1ncn2C1SC(CO)C(O)C1O (stereo not drawn) | 1.37
3. CSc1cnc2ccccc2c1Sc1cn(C)c2ccccc2c1=O | 1.65

query: Reported log10 of TGI, molecule CC(=O)Nc1ccc(S(=O)(=O)N2C(=O)CCC2C(=O)Nc2ccccc2)cc1 (stereo not drawn) : ____
result: 1.28

query: Reported log10 of TGI, molecule CC(=O)[O-].O=C([CH-]C(=O)c1ccccc1)c1ccccc1.O=C([CH-]C(=O)c1ccccc1)c1ccccc1.[Dy+3] : ____
result: 1.56

query: Reported log10 of TGI, molecule O=C1C/C(=C\c2ccccc2)C(=O)c2ccccc2N1 : ____
result: 1.59

query: Reported log10 of TGI, molecule CN(C)CCCCN1c2ccccc2Sc2ccc(N=[N+]=[N-])cc21 : ____
result: 1.34

query: Reported log10 of TGI, molecule Cc1ccc(CNc2ccc(Cl)cc2NCc2ccc(C)c(O)c2)cc1O : ____
result: 1.26

query: Reported log10 of TGI, molecule C=CN(C(=O)N1CCN(c2cc3c(cc2F)c(=O)c(C(=O)O)cn3C2CC2)CC1)c1nc(-c2ccc(C)cc2)cs1 : ____
result: 1.30

query: Reported log10 of TGI, molecule CCn1c(O)c(C(=O)Nc2cccs2)c(=O)n(CC)c1=S : ____
result: 1.78
